Cited source: patent US20260285880A1

Target: Flpin-293-PDE4B2 cells (Homo sapiens, UniProt Q07343)
Sequence (Q07343 1-564 isoform Q07343-2): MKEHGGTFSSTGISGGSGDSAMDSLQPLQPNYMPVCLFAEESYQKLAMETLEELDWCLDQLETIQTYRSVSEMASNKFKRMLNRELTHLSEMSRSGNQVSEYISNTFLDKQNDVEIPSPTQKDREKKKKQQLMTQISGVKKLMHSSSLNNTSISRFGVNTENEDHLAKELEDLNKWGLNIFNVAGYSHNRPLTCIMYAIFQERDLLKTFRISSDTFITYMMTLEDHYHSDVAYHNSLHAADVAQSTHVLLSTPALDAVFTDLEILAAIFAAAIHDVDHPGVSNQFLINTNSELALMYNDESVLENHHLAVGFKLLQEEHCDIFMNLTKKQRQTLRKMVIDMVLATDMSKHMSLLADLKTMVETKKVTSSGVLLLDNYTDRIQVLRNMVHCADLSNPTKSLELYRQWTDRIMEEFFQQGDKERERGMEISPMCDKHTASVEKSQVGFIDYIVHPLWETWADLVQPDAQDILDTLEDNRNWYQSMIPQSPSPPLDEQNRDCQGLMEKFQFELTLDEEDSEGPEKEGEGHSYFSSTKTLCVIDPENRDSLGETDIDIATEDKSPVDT
Experiment: cell-based
Settings: read-out: Cell Inhibition % @100 nM, 100 nM, Flpin-293-PDE4B2 cells
Quick reference for inhibition at 0.1 µM among some compounds

compound: COC(=O)N1CC[C@H](Nc2nc(N3CCc4cc(N5CCCC5)ccc4C3)nc3c2[S+]([O-])CC3)C1 (stereo partly shown)
system.under.test: Flpin-293-PDE4B2 cells (Homo sapiens, UniProt Q07343)
inhibition at 0.1 µM / %: 100
--
compound: [O-][S+]1CCc2nc(N3CCc4cc(N5CCCC5C(F)(F)F)ccc4C3)nc(NC3(CO)CCC3)c21 (stereo not shown)
system.under.test: Flpin-293-PDE4B2 cells (Homo sapiens, UniProt Q07343)
inhibition at 0.1 µM / %: 83.1
--
compound: C[C@H]1c2ccc(N3CCCC3)cc2CCN1c1nc2c(c(NC3(CO)CCOCC3)n1)[S+]([O-])CC2 (stereo partly shown)
system.under.test: Flpin-293-PDE4B2 cells (Homo sapiens, UniProt Q07343)
inhibition at 0.1 µM / %: 97.5
--
compound: [O-][S+]1CCc2nc(N3CCc4sc(Br)cc4C3)nc(NC3(CO)CCC3)c21 (stereo not shown)
system.under.test: Flpin-293-PDE4B2 cells (Homo sapiens, UniProt Q07343)
inhibition at 0.1 µM / %: 93.4

----------
# inhibition at 0.1 µM annotations
Target: Flpin-293-PDE4B2 cells (Homo sapiens, UniProt Q07343)
Test: cell-based
Conditions: read-out: Cell Inhibition % @100 nM, 100 nM, Flpin-293-PDE4B2 cells
metric: inhibition at 0.1 µM (%)

compound: [O-][S+]1CCc2nc(N3CCc4cc(N5CCCC5)ccc4C3)nc(Nc3cn[nH]c3)c21 (stereo not drawn) [Compound 194]
system.under.test: Flpin-293-PDE4B2 cells (Homo sapiens, UniProt Q07343)
display.unit: %
recorded.number: 92.9

compound: [O-][S+]1CCc2nc(N3CC[C@@H]4c5ccc(Cl)nc5OC[C@H]4C3)nc(NC3(CO)CCC3)c21 (stereo partly drawn) [Compound 119]
system.under.test: Flpin-293-PDE4B2 cells (Homo sapiens, UniProt Q07343)
display.unit: %
recorded.number: 96

compound: O=C1CCCN1c1ccc2c(c1)CCN(c1nc3c(c(NC4(CO)CCC4)n1)[S+]([O-])CC3)C2 (stereo not drawn) [Compound 87]
system.under.test: Flpin-293-PDE4B2 cells (Homo sapiens, UniProt Q07343)
display.unit: %
recorded.number: 89.1

compound: [O-][S+]1CCc2nc(N3CCc4cc(N5CCC6(CC5)COC6)ccc4C3)nc(NC3(CO)CCC3)c21 (stereo not drawn) [Compound 166]
system.under.test: Flpin-293-PDE4B2 cells (Homo sapiens, UniProt Q07343)
display.unit: %
recorded.number: 98.2

compound: C[C@@H]1c2ccc(Br)cc2CCN1c1nc2c(c(NC3(CO)CCC3)n1)[S+]([O-])CC2 (stereo partly drawn) [Compound 124]
system.under.test: Flpin-293-PDE4B2 cells (Homo sapiens, UniProt Q07343)
display.unit: %
recorded.number: 97.3

compound: [O-][S+]1CCc2nc(N3CCc4cc(I)ccc4C3)nc(NC3(CO)CCC3)c21 (stereo not drawn) [Compound 67]
system.under.test: Flpin-293-PDE4B2 cells (Homo sapiens, UniProt Q07343)
display.unit: %
recorded.number: 96.4

compound: [O-][S+]1CCc2nc(N3CCc4cc(N5CCCC5)ccc4C3)nc(Nc3cnn(C4COC4)c3)c21 (stereo not drawn) [Compound 192]
system.under.test: Flpin-293-PDE4B2 cells (Homo sapiens, UniProt Q07343)
display.unit: %
recorded.number: 99.2

compound: Cn1c2c(c3ccc(Cl)cc3c1=O)CCN(c1nc3c(c(NC4(CO)CCC4)n1)[S+]([O-])CC3)C2 (stereo not drawn) [Compound 98]
system.under.test: Flpin-293-PDE4B2 cells (Homo sapiens, UniProt Q07343)
display.unit: %
recorded.number: 95.8

compound: C[C@H]1CN(c2nc3c(c(NC4(CO)CCC4)n2)[S+]([O-])CC3)Cc2ccc(Cl)cc21 (stereo partly drawn) [Compound 120]
system.under.test: Flpin-293-PDE4B2 cells (Homo sapiens, UniProt Q07343)
display.unit: %
recorded.number: 23.1

compound: [O-][S+]1CCc2nc(N3CCc4ccc(Cl)cc4C3)nc(NC3(CO)CCC3)c21 (stereo not drawn) [Compound 20]
system.under.test: Flpin-293-PDE4B2 cells (Homo sapiens, UniProt Q07343)
display.unit: %
recorded.number: 69.9

compound: [O-][S+]1CCc2nc(N3CC[C@@H]4c5ccccc5OC[C@H]4C3)nc(NC3(CO)CCC3)c21 (stereo partly drawn) [Compound 83]
system.under.test: Flpin-293-PDE4B2 cells (Homo sapiens, UniProt Q07343)
display.unit: %
recorded.number: 97.3

compound: [O-][S+]1CCc2nc(N3CC[C@@H]4c5ccc(F)cc5OC[C@H]4C3)nc(NC3(CO)CCC3)c21 (stereo partly drawn) [Compound 109]
system.under.test: Flpin-293-PDE4B2 cells (Homo sapiens, UniProt Q07343)
display.unit: %
recorded.number: 97.8

compound: C[C@H]1c2ccc(N3CCCC3)cc2CCN1c1nc2c(c(Nc3cn(C)nn3)n1)[S+]([O-])CC2 (stereo partly drawn) [Compound 214]
system.under.test: Flpin-293-PDE4B2 cells (Homo sapiens, UniProt Q07343)
display.unit: %
recorded.number: 64.1

compound: Cn1nc(Cl)c2c3c(cnc21)CN(c1nc2c(c(NC4(CO)CCC4)n1)[S+]([O-])CC2)CC3 (stereo not drawn) [Compound 105]
system.under.test: Flpin-293-PDE4B2 cells (Homo sapiens, UniProt Q07343)
display.unit: %
recorded.number: 93.5

compound: C[C@H]1c2ccc(N3CCCC3)cc2CCN1c1nc2c(c(Nc3cnn(CCC#N)c3)n1)[S+]([O-])CC2 (stereo partly drawn) [Compound 220]
system.under.test: Flpin-293-PDE4B2 cells (Homo sapiens, UniProt Q07343)
display.unit: %
recorded.number: 100

compound: [O-][S+]1CCc2nc(N3CCc4cc(N5CC(F)(F)C5)ccc4C3)nc(NC3(CO)CCC3)c21 (stereo not drawn) [Compound 88]
system.under.test: Flpin-293-PDE4B2 cells (Homo sapiens, UniProt Q07343)
display.unit: %
recorded.number: 93.5

compound: C[C@H]1CCCN1c1ccc2c(c1)CCN(c1nc3c(c(NC4(CO)CCC4)n1)[S+]([O-])CC3)C2 (stereo partly drawn) [Compound 134]
system.under.test: Flpin-293-PDE4B2 cells (Homo sapiens, UniProt Q07343)
display.unit: %
recorded.number: 101

compound: COc1nn(C)cc1Nc1nc(N2CCc3cc(N4CCCC4)ccc3[C@@H]2C)nc2c1[S+]([O-])CC2 (stereo partly drawn) [Compound 216]
system.under.test: Flpin-293-PDE4B2 cells (Homo sapiens, UniProt Q07343)
display.unit: %
recorded.number: 98.2

compound: Cn1nc2c(c1Cl)CN(c1nc3c(c(NC4(CO)CCC4)n1)[S+]([O-])CC3)CC2 (stereo not drawn) [Compound 58]
system.under.test: Flpin-293-PDE4B2 cells (Homo sapiens, UniProt Q07343)
display.unit: %
recorded.number: 57.1

compound: CS(=O)(=O)c1ccc2c(c1)CCN(c1nc3c(c(NC4(CO)CCC4)n1)[S+]([O-])CC3)C2 (stereo not drawn) [Compound 93]
system.under.test: Flpin-293-PDE4B2 cells (Homo sapiens, UniProt Q07343)
display.unit: %
recorded.number: 94.2

compound: CN1CCN(c2ccc3c(c2)CCN(c2nc4c(c(NC5(CO)CCC5)n2)[S+]([O-])CC4)C3)CC1 (stereo not drawn) [Compound 170]
system.under.test: Flpin-293-PDE4B2 cells (Homo sapiens, UniProt Q07343)
display.unit: %
recorded.number: 86.9

compound: CO[C@@H]1CCN(c2ccc3c(c2)CCN(c2nc4c(c(NC5(CO)CCC5)n2)[S+]([O-])CC4)C3)C1 (stereo partly drawn) [Compound 152]
system.under.test: Flpin-293-PDE4B2 cells (Homo sapiens, UniProt Q07343)
display.unit: %
recorded.number: 99.2

compound: [O-][S+]1CCc2nc(N3CCc4cc(N5CCCCC5)ccc4C3)nc(NC3(CO)CCC3)c21 (stereo not drawn) [Compound 143]
system.under.test: Flpin-293-PDE4B2 cells (Homo sapiens, UniProt Q07343)
display.unit: %
recorded.number: 100

compound: COC[C@@H](CO)Nc1nc(N2CCc3cc(N4CCCC4)ccc3C2)nc2c1[S+]([O-])CC2 (stereo partly drawn) [Compound 199]
system.under.test: Flpin-293-PDE4B2 cells (Homo sapiens, UniProt Q07343)
display.unit: %
recorded.number: 61.6

compound: C[C@H]1CCN1c1ccc2c(c1)CCN(c1nc3c(c(NC4(CO)CCC4)n1)[S+]([O-])CC3)C2 (stereo partly drawn) [Compound 176]
system.under.test: Flpin-293-PDE4B2 cells (Homo sapiens, UniProt Q07343)
display.unit: %
recorded.number: 97.8

compound: [O-][S+]1CCc2nc(N3CCc4cc(Cl)c(F)cc4C3)nc(NC3(CO)CCC3)c21 (stereo not drawn) [Compound 96]
system.under.test: Flpin-293-PDE4B2 cells (Homo sapiens, UniProt Q07343)
display.unit: %
recorded.number: 84.8

compound: COC[C@H]1CCCN1c1ccc2c(c1)CCN(c1nc3c(c(NC4(CO)CCC4)n1)[S+]([O-])CC3)C2 (stereo partly drawn) [Compound 146]
system.under.test: Flpin-293-PDE4B2 cells (Homo sapiens, UniProt Q07343)
display.unit: %
recorded.number: 101

compound: CN(C)c1ccc2c(c1)CCN(c1nc3c(c(NC4(CO)CCC4)n1)[S+]([O-])CC3)C2 (stereo not drawn) [Compound 126]
system.under.test: Flpin-293-PDE4B2 cells (Homo sapiens, UniProt Q07343)
display.unit: %
recorded.number: 100

compound: [O-][S+]1CCc2nc(N3CCc4cc(N5CC[C@@H](CO)C5)ccc4C3)nc(NC3(CO)CCC3)c21 (stereo partly drawn) [Compound 131]
system.under.test: Flpin-293-PDE4B2 cells (Homo sapiens, UniProt Q07343)
display.unit: %
recorded.number: 98.7

compound: [O-][S+]1CCc2nc(N3Cc4ccc(C(F)(F)F)cc4C3)nc(NC3(CO)CCC3)c21 (stereo not drawn) [Compound 62]
system.under.test: Flpin-293-PDE4B2 cells (Homo sapiens, UniProt Q07343)
display.unit: %
recorded.number: 69.1
